- targetDesc: pseudo-kinase domain (JH2) of human V617F mutant JAK2 (Homo sapiens, UniProt O60674, F794H/V617F/W659A/W777A)
- Construct: pseudo-kinase domain (JH2, amino-acids 536-812 with 3 surface mutations W659A, W777A, F794H)
- Sequence (O60674 536-812 V617F/W659A/W777A/F794H): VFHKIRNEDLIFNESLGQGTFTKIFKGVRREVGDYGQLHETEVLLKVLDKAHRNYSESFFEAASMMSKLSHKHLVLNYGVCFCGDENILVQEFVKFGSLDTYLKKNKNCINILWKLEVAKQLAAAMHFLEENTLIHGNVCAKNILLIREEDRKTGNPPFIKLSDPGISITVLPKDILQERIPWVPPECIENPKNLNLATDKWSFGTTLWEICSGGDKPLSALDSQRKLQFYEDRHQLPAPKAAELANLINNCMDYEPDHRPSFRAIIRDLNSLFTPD
- assayInfo: JAK2 LanthaScreen JH2-V617F Binding Assay
- experimentalSetup: 50 nM Fluorescent JAK2-JH2 Tracer, 1 hour at 25° C., read-out: JH2 BIND V617F
pIC50: −log10 of the molar value.
The following compounds are shown together with reported pIC50 values.

Example compounds with recorded pIC50:
[[record]]
compound = "COc1c(-c2cnn(C3CN(Cc4cccc(C(=O)N5CCOCC5)n4)C3)c2)cccc1-c1cnc(N)c2cnc(NC(=O)C3CC3)cc12 [Example 20]"
assaymetric = "pIC50"
testresult = "≥ 8.00"

[[record]]
compound = "CNc1ncc(-c2cccc(-c3cnn(C4CN(Cc5cccc(C(=O)N(C)CC(F)(F)F)n5)C4)c3)c2OC)c2cc(NC(=O)C3CC3)ncc12 [Example 3]"
assaymetric = "pIC50"
testresult = "≥ 8.00"


If you can, please state the reported pIC50 value of CNc1ncc(-c2cccc(-c3cnn(C4CN(C(=O)c5cccc(C(=O)N(C)C)n5)C4)c3)c2OC)c2cc(NC(=O)C3CC3)ncc12 [Example 8] .
≥ 8.00
